- assay-target: T1, recombinant human matriptase (human), Q9Y5Y6
- T1 chain: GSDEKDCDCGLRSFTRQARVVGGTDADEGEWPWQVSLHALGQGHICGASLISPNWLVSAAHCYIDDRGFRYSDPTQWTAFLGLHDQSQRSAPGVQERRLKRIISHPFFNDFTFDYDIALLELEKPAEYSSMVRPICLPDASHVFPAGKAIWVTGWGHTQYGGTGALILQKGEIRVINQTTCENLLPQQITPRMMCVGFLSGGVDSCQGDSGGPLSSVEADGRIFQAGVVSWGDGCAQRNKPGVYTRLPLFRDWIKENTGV
- assay-summary: competitive protease inhibition assay (selectivity panel), human matriptase, Boc-QAR-MCA
// reported pKi for each item listed
pKi here: minus log base 10 of the concentration, concentration in moles per litre.

The examples below pair each entry with its known result.
{"columns": ["binder", "pKi"],
 "data": [
  ["DGGICPRIGRLCRRDSDCPGACICRATRFCGSGY (modifications not checked) [MCoFx1 cyclic]", 5.04],
  ["DGGICPRIGRLCRRDSDCPGACICRGNGYCGSGS (modifications not checked) [cMCoTI-fxL1]", 5.66]
]}

API: the following record is the query input.
Data request: Entry DGGVCPKILKKCRRDSDCPGACICRATRFCGSGS (modifications not checked) [cMCoTI-fxL5] : reported pKi = ?
Data returned: 7.77
